Task for the reader: assign each of the following compounds its reported IC50.
- Assayed Target: PI3Kγ (Homo sapiens, UniProt P48736)
- Sequence (P48736 whole entry): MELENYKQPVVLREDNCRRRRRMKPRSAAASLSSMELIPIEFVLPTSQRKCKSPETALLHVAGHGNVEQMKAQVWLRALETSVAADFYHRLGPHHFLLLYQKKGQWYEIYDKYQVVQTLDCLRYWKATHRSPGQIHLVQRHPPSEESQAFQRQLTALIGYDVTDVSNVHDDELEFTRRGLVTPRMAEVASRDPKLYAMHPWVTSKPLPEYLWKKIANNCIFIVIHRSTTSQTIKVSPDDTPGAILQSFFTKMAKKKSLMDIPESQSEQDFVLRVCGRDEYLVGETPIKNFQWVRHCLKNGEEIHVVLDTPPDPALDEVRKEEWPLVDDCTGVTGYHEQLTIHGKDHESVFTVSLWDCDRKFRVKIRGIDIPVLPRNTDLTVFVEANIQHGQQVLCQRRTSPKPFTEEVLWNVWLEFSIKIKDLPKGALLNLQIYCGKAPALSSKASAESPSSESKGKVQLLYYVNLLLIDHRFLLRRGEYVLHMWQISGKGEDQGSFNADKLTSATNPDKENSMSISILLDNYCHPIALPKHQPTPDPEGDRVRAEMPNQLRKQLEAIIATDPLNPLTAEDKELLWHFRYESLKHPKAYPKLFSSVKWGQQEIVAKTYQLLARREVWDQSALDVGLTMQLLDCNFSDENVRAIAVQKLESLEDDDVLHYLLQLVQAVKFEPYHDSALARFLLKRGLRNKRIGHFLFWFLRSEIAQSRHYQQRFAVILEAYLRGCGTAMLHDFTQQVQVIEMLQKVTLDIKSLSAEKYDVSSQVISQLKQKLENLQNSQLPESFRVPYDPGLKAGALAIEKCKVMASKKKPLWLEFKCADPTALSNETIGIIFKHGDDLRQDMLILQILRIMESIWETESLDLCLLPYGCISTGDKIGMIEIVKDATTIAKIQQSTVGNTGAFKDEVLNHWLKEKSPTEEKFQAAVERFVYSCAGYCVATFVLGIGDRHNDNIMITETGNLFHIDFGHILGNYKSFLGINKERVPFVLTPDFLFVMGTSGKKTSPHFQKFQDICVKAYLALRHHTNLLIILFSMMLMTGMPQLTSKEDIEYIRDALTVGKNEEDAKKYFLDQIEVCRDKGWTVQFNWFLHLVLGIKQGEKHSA

Illustrative cases are given below, each with its answer.
Cc1nc([C@H](C)Nc2ncnc3[nH]cnc23)cc2cccc(C(=O)N3CCN(C)CC3)c12 [Compound 202]	> 10 µM
C[C@H](NC(=O)c1nccnc1N)c1cc2cccc(Cl)c2c(C(=O)N2CCOCC2)n1 [Compound 118]	< 10 µM
C[C@H](Nc1ncnc2[nH]cnc12)c1cc2cccc(F)c2c(N2CCN(C)CC2)n1 [Compound 100]	> 10 µM

Please report IC50 for every entry that follows.
1. C[C@H](Nc1ncnc2[nH]cnc12)c1cc2cccc(Cl)c2c(OCC(=O)O)n1 [Compound 128]
2. C[C@H](Nc1ncnc2[nH]cnc12)c1cc2cccc(Cl)c2c(OCC(=O)N2CCCC2)n1 [Compound 45]
3. C[C@H](Nc1ncnc2cccnc12)c1cc2cccc(Cl)c2c(C(=O)N2CCS(=O)(=O)CC2)n1 [Compound 219]
4. C[C@H](Nc1ncnc2[nH]cnc12)c1cc2cccc(Cl)c2c(C(=O)NC2CCC2)n1 [Compound 23]
5. Cc1nc(-c2nc([C@H](C)Nc3ncnc4[nH]cnc34)cc3cccc(Cl)c23)no1 [Compound 32]
6. C[C@H](Nc1ncnc2[nH]cnc12)c1cc2cccc(-c3cnn(C)c3)c2c(Cl)n1 [Compound 193]
7. C[C@H](Nc1ncnc2cccnc12)c1cc2cccc(Cl)c2c(OCCN2CCCC2)n1 [Compound 105]
8. C[C@H](Nc1ncnc2[nH]cnc12)c1cc2cccc(Cl)c2c(C(=O)N2CCN(C)CC2)n1 [Compound 15]

**Result**
1: < 1 µM; 2: < 10 µM; 3: < 1 µM; 4: < 10 µM; 5: < 10 µM; 6: < 1 µM; 7: < 1 µM; 8: < 10 µM

Please report IC50 for every entry that follows.
1. C[C@H](Nc1ccnn2ccnc12)c1cc2ccccc2c(CCN2CCOCC2)n1 [Compound 77]
2. Cc1cccc2cc([C@H](C)Nc3ncnc4[nH]cnc34)nc(OC3CCN(C(C)C)CC3)c12 [Compound 57]
3. CC(C)N1CCN(c2nc([C@H](C)Nc3ncnc4[nH]cnc34)cc3cccc(Cl)c23)CC1 [Compound 90]
4. C[C@H](Nc1ncnc2ccccc12)c1cc2cccc(Cl)c2c(CCN2CCOCC2)n1 [Compound 74]
5. C[C@H](Nc1ccnc2ccnn12)c1cc2cccc(Cl)c2c(C(=O)N2C3CCC2COC3)n1 [Compound 125]

**Result**
["> 10 µM", "> 10 µM", "< 10 µM", "< 10 µM", "< 10 µM"]

* * *

PI3Kβ (Homo sapiens, UniProt P42338) measurements of IC50, listed per entry.
Sequence (P42338 whole entry): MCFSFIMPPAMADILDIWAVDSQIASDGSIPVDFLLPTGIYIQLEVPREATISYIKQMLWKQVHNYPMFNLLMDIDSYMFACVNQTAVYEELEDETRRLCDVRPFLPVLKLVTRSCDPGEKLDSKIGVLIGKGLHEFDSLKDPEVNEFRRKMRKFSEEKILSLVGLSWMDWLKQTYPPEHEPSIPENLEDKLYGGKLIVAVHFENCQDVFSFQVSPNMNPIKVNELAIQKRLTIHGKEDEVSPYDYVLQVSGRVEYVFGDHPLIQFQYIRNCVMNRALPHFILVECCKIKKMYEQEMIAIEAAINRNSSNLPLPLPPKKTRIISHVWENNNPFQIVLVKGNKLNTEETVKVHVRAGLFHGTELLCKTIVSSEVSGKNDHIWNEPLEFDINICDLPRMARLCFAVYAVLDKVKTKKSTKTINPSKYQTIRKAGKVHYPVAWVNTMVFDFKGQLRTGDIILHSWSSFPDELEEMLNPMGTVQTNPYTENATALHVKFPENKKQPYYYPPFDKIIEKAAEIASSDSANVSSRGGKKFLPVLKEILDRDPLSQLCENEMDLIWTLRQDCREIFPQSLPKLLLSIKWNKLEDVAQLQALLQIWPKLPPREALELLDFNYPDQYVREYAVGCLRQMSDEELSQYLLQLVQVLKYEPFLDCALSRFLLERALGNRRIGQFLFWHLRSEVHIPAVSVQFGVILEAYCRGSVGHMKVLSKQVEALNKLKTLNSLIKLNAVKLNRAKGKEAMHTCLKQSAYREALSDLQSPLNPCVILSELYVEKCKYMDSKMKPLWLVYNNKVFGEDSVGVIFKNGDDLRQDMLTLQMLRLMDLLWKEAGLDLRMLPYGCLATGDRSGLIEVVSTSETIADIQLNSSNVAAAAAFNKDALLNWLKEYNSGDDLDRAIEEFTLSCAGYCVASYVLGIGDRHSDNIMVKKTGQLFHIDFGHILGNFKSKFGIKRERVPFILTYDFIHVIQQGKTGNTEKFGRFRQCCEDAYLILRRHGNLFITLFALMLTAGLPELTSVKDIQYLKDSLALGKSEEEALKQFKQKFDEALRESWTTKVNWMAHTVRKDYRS
Sequence (P27986 whole entry partner): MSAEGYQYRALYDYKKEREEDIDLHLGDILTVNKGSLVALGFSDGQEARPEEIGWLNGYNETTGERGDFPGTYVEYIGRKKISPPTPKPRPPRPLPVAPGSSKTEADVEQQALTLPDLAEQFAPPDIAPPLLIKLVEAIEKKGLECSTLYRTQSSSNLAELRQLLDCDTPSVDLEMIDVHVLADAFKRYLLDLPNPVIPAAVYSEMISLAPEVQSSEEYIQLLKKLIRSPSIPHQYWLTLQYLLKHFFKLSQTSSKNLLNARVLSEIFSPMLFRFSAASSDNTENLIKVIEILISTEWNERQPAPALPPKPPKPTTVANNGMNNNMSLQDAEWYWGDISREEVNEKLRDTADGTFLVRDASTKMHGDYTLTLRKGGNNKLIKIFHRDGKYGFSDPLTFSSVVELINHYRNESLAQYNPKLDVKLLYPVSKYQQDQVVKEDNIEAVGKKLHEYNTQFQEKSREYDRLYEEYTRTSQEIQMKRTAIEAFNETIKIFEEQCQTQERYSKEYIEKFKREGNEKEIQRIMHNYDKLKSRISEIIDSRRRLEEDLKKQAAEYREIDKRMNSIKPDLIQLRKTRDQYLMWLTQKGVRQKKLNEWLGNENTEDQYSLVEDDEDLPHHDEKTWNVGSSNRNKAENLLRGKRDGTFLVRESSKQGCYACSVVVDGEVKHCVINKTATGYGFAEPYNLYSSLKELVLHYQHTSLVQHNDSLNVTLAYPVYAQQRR

Please report IC50 for every entry that follows.
1. C[C@H](Nc1ncnc2[nH]cnc12)c1cc2cccc(Cl)c2c(CN2CCC2)n1 [Compound 9]
2. C[C@H](Nc1ncnc2cccnc12)c1cc2ccccc2c(C(=O)N2CCOCC2)n1 [Compound 247]
3. C[C@H](Nc1ncnc2[nH]cnc12)c1cc2cccc(Cl)c2c(CC(=O)N2CCCC2)n1 [Compound 36]
4. C[C@H](Nc1ncnc2ccccc12)c1cc2cccc(Cl)c2c(CCN2CCOCC2)n1 [Compound 74]
5. CC(C)N1CCC(Oc2nc([C@H](C)Nc3ncnc4[nH]cnc34)cc3cccc(-c4cnn(C)c4)c23)CC1 [Compound 158]
6. C[C@@H](Nc1ncnc2[nH]cnc12)c1cc2cccc(Cl)c2c(CN2CCCC2)n1 [Compound 239]
7. C[C@H](Nc1ncnc2[nH]cnc12)c1cc2cccc(Cl)c2c(CN2CCC(F)(F)C2)n1 [Compound 8]
8. C[C@H](Nc1ncnc2scnc12)c1cc2cccc(Cl)c2c(N2CCN(C)CC2)n1 [Compound 98]

**Result**
1. < 10 µM
2. > 10 µM
3. < 10 µM
4. < 10 µM
5. < 10 µM
6. > 10 µM
7. < 10 µM
8. < 1 µM

* * *

- Assayed Target: PI3Kδ (Homo sapiens, UniProt O00329)
- Sequence (O00329 whole entry): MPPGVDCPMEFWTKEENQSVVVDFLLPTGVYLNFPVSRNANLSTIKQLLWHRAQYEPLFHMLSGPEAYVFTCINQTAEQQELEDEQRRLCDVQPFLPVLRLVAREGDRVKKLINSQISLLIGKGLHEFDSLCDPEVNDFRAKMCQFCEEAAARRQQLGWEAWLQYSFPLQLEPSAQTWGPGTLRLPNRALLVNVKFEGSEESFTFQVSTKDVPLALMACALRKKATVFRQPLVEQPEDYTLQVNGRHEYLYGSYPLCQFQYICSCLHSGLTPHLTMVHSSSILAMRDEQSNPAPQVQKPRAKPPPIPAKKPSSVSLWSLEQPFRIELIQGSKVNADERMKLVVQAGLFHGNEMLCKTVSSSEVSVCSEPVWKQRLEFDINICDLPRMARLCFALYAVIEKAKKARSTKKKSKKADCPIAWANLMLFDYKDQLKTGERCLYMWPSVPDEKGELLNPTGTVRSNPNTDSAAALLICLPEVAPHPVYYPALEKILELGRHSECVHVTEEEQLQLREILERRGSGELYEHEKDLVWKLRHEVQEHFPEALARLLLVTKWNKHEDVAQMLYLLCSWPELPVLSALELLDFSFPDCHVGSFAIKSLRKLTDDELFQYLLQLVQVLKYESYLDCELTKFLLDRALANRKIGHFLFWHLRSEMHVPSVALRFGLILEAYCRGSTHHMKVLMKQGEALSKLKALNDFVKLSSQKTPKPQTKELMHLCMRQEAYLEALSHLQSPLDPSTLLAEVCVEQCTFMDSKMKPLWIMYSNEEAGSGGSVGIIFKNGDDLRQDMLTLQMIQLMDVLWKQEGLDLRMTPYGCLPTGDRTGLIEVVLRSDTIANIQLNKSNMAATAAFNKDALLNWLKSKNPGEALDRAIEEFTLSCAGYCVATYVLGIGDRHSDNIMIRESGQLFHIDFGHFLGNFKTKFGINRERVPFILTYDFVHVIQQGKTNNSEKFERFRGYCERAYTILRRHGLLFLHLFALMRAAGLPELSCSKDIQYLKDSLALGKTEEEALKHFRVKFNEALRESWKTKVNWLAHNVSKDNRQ
- Sequence (P27986 whole entry partner): as the sequence (P27986 whole entry partner) above
Task for the reader: assign each of the following molecules its reported IC50.

Cc1cccc2cc([C@H](C)Nc3ncnc4[nH]cnc34)nc(C(=O)N3CCOCC3)c12	< 1000 nM
C[C@H](Nc1ncnc2scnc12)c1cc2cccc(Cl)c2c(CCN2CCOCC2)n1	< 100 nM
C[C@H](Nc1ccnc2ccnn12)c1cc2cccc(Cl)c2c(C(=O)N2C3CCC2COC3)n1	< 100 nM

Proceed to the following item.
**Query** Form field: reported IC50 of C[C@H](Nc1ccnn2ccnc12)c1cc2cccc(Cl)c2c(C(=O)N2CCOCC2)n1
**Result** < 100 nM

* * *

Task for the reader: assign each of the following compounds its reported IC50.
- Assayed Target: PI3Kβ (Homo sapiens)
- Construct: purchased Millipore Corporation 14-603-K
- Assay: PI3 Kinase HTRF assay, PI3Kβ
- Type: biochemical
- Details: 10 μM PIP2, 10 μM ATP; read-out: PI3K β IC50

Illustrative cases are given below, each with its answer.
C[C@H](Nc1ncnc2[nH]cc(F)c12)c1cc2cccc(Cl)c2c(C(=O)N2C3CCC2COC3)n1	< 10 µM
Cc1cccc2cc([C@H](C)Nc3ncnc4[nH]cnc34)nc(C(=O)N3CCOCC3)c12	> 10 µM
C[C@H](Nc1ncnc2[nH]cnc12)c1cc2cc(F)ccc2c(CCN2CCOCC2)n1	> 10 µM
C[C@H](Nc1ncnc2[nH]cnc12)c1cc2cccc(Cl)c2c(C(=O)NC2CCOCC2)n1	> 10 µM

Proceed to the following item.
**Query** Form field: reported IC50 of Cc1cccc2cc([C@H](C)Nc3ncnc4[nH]cnc34)nc(OCC3CCN(C)CC3)c12
**Result** < 10 µM

* * *

PI3Kβ (Homo sapiens, UniProt P42338) measurements of IC50, listed per entry.

Illustrative cases are given below, each with its answer.
CC(=O)NCCOc1nc([C@H](C)Nc2ncnc3[nH]cnc23)cc2cccc(Cl)c12 [Compound 40]	< 10 µM
Cc1cccc2cc([C@H](C)Nc3ncnc4cccnc34)nc(OC3CCN(C(C)C)CC3)c12 [Compound 163]	> 10 µM
CC(C)N1CCC(Oc2nc([C@H](C)Nc3ncnc4scnc34)cc3cccc(Cl)c23)CC1 [Compound 122]	< 10 µM
Cc1cccc2cc([C@H](C)Nc3ncnc4[nH]cnc34)nc(OCCN3CCCC3)c12 [Compound 145]	< 10 µM
C[C@H](Nc1nc(N)nc2cccnc12)c1cc2cccc(Cl)c2c(C(=O)N2CCOCC2)n1 [Compound 238]	< 10 µM
C[C@H](Nc1ncnc2cccnc12)c1cc2cccc(Cl)c2c(C(=O)N2CCOC[C@H]2C)n1 [Compound 245]	> 10 µM
C[C@H](Nc1ncnc2scnc12)c1cc2cccc(Cl)c2c(C(=O)N2CCC(F)(F)CC2)n1 [Compound 228]	< 10 µM
C[C@H](Nc1ccnn2ccnc12)c1cc2cccc(Cl)c2c(OC2CCN(S(C)(=O)=O)CC2)n1 [Compound 176]	< 10 µM

Please report IC50 for every entry that follows.
1. C[C@H](Nc1ncnc2scnc12)c1cc2cccc(Cl)c2c(C(=O)N2CCC(O)CC2)n1 [Compound 234]
2. C[C@H](Nc1ccnn2ccnc12)c1cc2cccc(Cl)c2c(C(=O)N2CCOCC2)n1 [Compound 188]

**Result**
1. < 10 µM
2. < 1 µM

Please report IC50 for every entry that follows.
1. Cc1cccc2cc([C@H](C)Nc3ncnc4[nH]cnc34)nc(CCN3CCOCC3)c12 [Compound 146]
2. C[C@H](Nc1ncnc2scnc12)c1cc2cccc(Cl)c2c(C(=O)NC2CCNCC2)n1 [Compound 209]
3. C[C@H](Nc1ncnc2[nH]cnc12)c1cc2cccc(Cl)c2c(OCC(=O)N2CCOCC2)n1 [Compound 43]
4. C[C@H](Nc1ncnc2[nH]cnc12)c1cc2cccc(Cl)c2c(CCN2CCOCC2)n1 [Compound 4]
5. C[C@H](Nc1ncnc2cccnc12)c1cc2cccc(Cl)c2c(OC2CCN(S(C)(=O)=O)CC2)n1 [Compound 173]
6. C[C@H](Nc1ncnc2[nH]cnc12)c1cc2cccc(Cl)c2c(C(=O)Nc2ccccc2)n1 [Compound 25]

**Result**
< 10 µM
> 10 µM
> 10 µM
< 10 µM
< 10 µM
< 10 µM

* * *

- Assayed Target: PI3Kβ (Homo sapiens, UniProt P42338)
Readout: IC50

Illustrative cases are given below, each with its answer.
COCCN(C)C(=O)c1nc([C@H](C)Nc2ncnc3scnc23)cc2cccc(Cl)c12	< 10 µM
C[C@H](Nc1ncnc2[nH]cnc12)c1cc2cccc(Cl)c2c(-c2cc(CO)on2)n1	< 1 µM
C[C@H](Nc1ncnc2[nH]cnc12)c1cc2cccc(-c3cnn(C)c3)c2c(C(=O)N2C3CCC2COC3)n1	> 10 µM

Please report IC50 for every entry that follows.
1. C[C@H](Nc1ncnc2cccnc12)c1cc2cccc(Cl)c2c(C(=O)N2CCCOCC2)n1
2. C[C@H](Nc1ncnc2scnc12)c1cc2cccc(Cl)c2c(C(=O)N2CCOCC2)n1
3. C[C@H](Nc1ccnc2ccnn12)c1cc2cccc(Cl)c2c(C(=O)NC2CCOCC2)n1

**Result**
> 10 µM
< 1 µM
> 10 µM

Please report IC50 for every entry that follows.
1. CCN1CCN(c2nc([C@H](C)Nc3ncnc4[nH]cnc34)cc3cccc(Cl)c23)CC1
2. Cc1cccc2cc([C@H](C)Nc3ncnc4cccnc34)nc(CCN3CCOCC3)c12

**Result**
1. < 10 µM
2. > 10 µM

Please report IC50 for every entry that follows.
1. C[C@H](Nc1nc(N)ncc1C(F)(F)F)c1cc2cccc(Cl)c2c(CCN2CCOCC2)n1
2. Cc1cccc2cc([C@H](C)Nc3ncnc4[nH]cnc34)nc(OC3CCN(C(C)C)CC3)c12
3. C[C@H](Nc1ncnc2[nH]cc(F)c12)c1cc2cccc(Cl)c2c(C(=O)N2CCOCC2)n1
4. C[C@H](Nc1ncnc2[nH]cc(C(N)=O)c12)c1cc2cccc(Cl)c2c(C(=O)N2C3CCC2COC3)n1
5. CNC(=O)NCCOc1nc([C@H](C)Nc2ncnc3[nH]cnc23)cc2cccc(Cl)c12
6. Cc1nc([C@H](C)Nc2ncnc3[nH]cnc23)cc2cccc(C(=O)N3CCN(C)CC3)c12
7. C[C@H](NC(=O)c1cnc2cccnn12)c1cc2cccc(Cl)c2c(C(=O)N2CCOCC2)n1

**Result**
["< 10 µM", "< 10 µM", "< 10 µM", "< 10 µM", "< 10 µM", "> 10 µM", "< 10 µM"]

**Query** Form field: reported IC50 of C[C@H](Nc1ncnc2scnc12)c1cc2cccc(Cl)c2c(C(=O)NC2CCCC2)n1
**Result** > 10 µM
